# Protocol Text: soluble on expression in E. coli; label from the status in PepcDB or PDB records
Test Readout: soluble on expression in E. coli

{"Biosequence": "NLNSIQNFGAIDILCTDKTGTLTQDKVVLEYHLNVNGEDDTRVLRHAYLNSYFQTGYKNLMDLAIIHKTEEEEAADSRLIDLSENYVKVDEIPFDFTRRRLTTVVQDNKGKTQMVTKGAVEEMLSICAFAECNGGVQPLTDDVRYRILETVDNLNDKGFRVLAIAQKSNPSPIGAFGVKDECDMVLIGYLAFLDP", "Observed Result": "not soluble"}
{"Biosequence": "MGSDKIHHHHHHMTWQVERIANEHLTLEVLPQIGASVLNLRAASGRPVLRPVNPAAVQTSSQCASFTLLPYSNRIRDARFSFQGREVLLRPTTKDGLAQHGDVRNRPWQVTRVADTHLRGDFDSRAFNDMNWPWAFTARVEYLLHGPHLDTSVTLTNVDTDEMPAGMGLHPYFTRRHGGRDPFLSFGAALTYDTDERQLPTGGPRTLHPEEDYQMPSSIGDRQLDRVYTAWDGRARLDWGERALTLTADAVYSHLVVFTAPDGSLALEPVTHATDAFNLAARGVSGTDMRTLLPGQSLAGTVRITLEGAW", "Observed Result": "not soluble"}
{"Biosequence": "MVDESKLQCYHKGCGLLFDPKENDNEACTYHPGGPYFHDAYKIWTCCDKKSTDFGTWMNYKGCTRGKHSNEKPVDIVKVAAVKEIRPEKEEDVIVWKGLNKSGKLDSKDATKRIEQNLNVEVTPGATAAIEKKLKEISEAAQSADIQIGAPCRNNGCSTEFDGSKNKENCQHHPGAAIFHEGMKYWSCCNKKTSNFGAFLEQVGCTSGEHKFRNNEIVSKFREDWFSSNGFVTINVYCRGALPETANIVSDGHTVRVSMKHGFGNASVDLDYDLWDEVIPEESRVVIGERKVEISLKQKHGTGWPRLKFDPELDAKNDEEA", "Observed Result": "not soluble"}

###

# Protocol Text: soluble on expression in E. coli; label from the status in PepcDB or PDB records
Test Readout: soluble on expression in E. coli

Consider the following illustrative entries.
{"Biosequence": "MSFVVIIPARYASTRLPGKPLVDINGKPMIVHVLERARESGAERIIVATDHEDVARAVEAAGGEVCMTRADHQSGTERLAEVVEKCAFSDDTVIVNVQGDEPMIPATIIRQVADNLAQRQVGMATLAVPIHNAEEAFNPNAVKVVLDAEGYALYFSRATIPWDRDRFAEGLETVGDNFLRHLGIYGYRAGFIRRYVNWQPSPLEHIEMLEQLRVLWYGEKIHVAVAQEVPGTGVDTPEDLERVRAEMRGSHHHHHH", "Observed Result": "soluble"}
{"Biosequence": "MNQQKSLTLIVALTTSYGIGRSNSLPWKLKKEISYFKRVTSFVPTFDSFESMNVVLMGRKTWESIPLQFRPLKGRINVVITRNESLDLGNGIHSAKSLDHALELLYRTYGSESSVQINRIFVIGGAQLYKAAMDHPKLDRIMATIIYKDIHCDVFFPLKFRDKEWSSVWKKEKHSDLESWVGTKVPHGKINEDGFDYEFEMWTRDL", "Observed Result": "soluble"}
{"Biosequence": "MGSDKIHHHHHHMIDFIISIDDCAVELDSRQSWKIRYPLSTILFLVFVCQLAGIETWKEMEDFIEMNEPLFATYVDLSEGCPSHDTLERVISLVNSDRLKELKVQFEQSLTSLDAVHQLISVDGKTIRGNRGKNQKPVHIVTAYDGGHHLSLGQVAVEEKSNEIVAIPQLLRTIDIRKSIVTIDAMGTQTAIVDTIIKGKADYCLAVKGNQETLYDDIALYFSDVNLLEELQENAQYYQTVEKSRGQIEVREYWVSSDIKWLCQNHPKWHKLRGIGMTRNTIDKDGQLSQENRYFIFSFKPDVLTFANCVRGHWQIESMHWLLDVVYHEDHHQTLDKRAAFNLNLIRKMCLYFLKVMVFPKKDLSYRRKQRYISVHLEDYLVQLFGERG", "Observed Result": "not soluble"}
{"Biosequence": "MGSDKIHHHHHHMATEIIYMVKDWFEWHDLYKNEPKLQQRLQIVQEYISYSLNLPEPGLIRVVSVCAGDGRDLLGTLSNHPRAKDVYARLVELNPHLVERGQQTIESLGLTKQIEFINGDATLSSNYLGAVPADIVIVCGVFGNLADEAELNRLLANLSFLSKQGAFVIWTRGHSNGIPHSETVRKFFREYGFEEVNFKLTATGDMGVGIHRYLGESLAAPKEQQFFAFTGVPSKAR", "Observed Result": "not soluble"}
{"Biosequence": "MSSSIPRVYSLGNSAMTYLLALRIAQLPSQPKVPSVVLLLNDQKKLNRFLNNDSKIIVKSSNNNKETYHRQFMASCVPPILSNGEIAPIENLIVSDPSSKFITAQLSKYNKSLRPETNILFLNPSLNLLEHLHRYRWRFDEARPNLFMGFTTPVDVGTIHQEFQLSLKVKGRIQFHIAKIDGFPRMSSTGKSASLSLRGDRQKNEKENNAFYKLFREISRLRSGIGSDLVSFDLHVHGFQDLFFTELEKLILESCTEPLLAVYDCVYKKELLKIPGAQDIIKKLISEQLSIIDRSYPSLNTNPNYSVIFDKERIFSLVMRDLEVNGHKRAKLAQSLNQLNQTNINELNGFFVSLGKYKKCNCKWNDILLTLIKGKQFITKQKALDYHYL", "Observed Result": "soluble"}

What soluble on expression in E. coli value was documented for this sequence, MAEHPIQGLMETAMESIKEMVDVNTIVGDAVQAPDGTVIIPISKVTFGFAAGGGEFASCCSVDEKGEDSSDDSSKPEIKFPFAGGSGAGVSINPVAFMVVGQGQIKLLPVNINSSLEKILDLIPEIIEKTKDSVKKNLKVKKEIKPGNGESCAKSSKEDENE ?
not soluble

Note, next up: MEAKAIARYVRISPRKVRLVVDLIRGKSLEEARNILRYTNKRGAYFVAKVLESAAANAVNNHDMLEDRLYVKAAYVDEGPALKRVLPRARGRADIIKKRTSHITVILGEKHGK
soluble

Further, for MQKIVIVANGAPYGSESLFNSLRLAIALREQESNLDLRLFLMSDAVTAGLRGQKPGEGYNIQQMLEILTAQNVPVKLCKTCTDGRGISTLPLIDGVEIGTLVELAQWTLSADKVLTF ?
soluble

Now consider MTEASIKLGTTSDKLEYEVIDKGSNGFLGIGSRDAVIKVKKAEASVEDEIREFLDSVFKAMKLEVTIDIKVDEDNRNVDVELNGPEMGVLIGKRGQTLDSLQYLTNLAINKQSENYYRVKIDTEDYRKRRRETLENLAKNISFKVKRTKRPVSLEPMNPFERRVIHSALQNDRFVETHSEGDEPYRHVVVTLKK .
not soluble

Repeat with MAHHHHHHMQVWGLVGRLTLPPSSSGKARKGSRRIPAADARLSKGSVNNRGRFVHNNRRMDNTLSVVVEKPAGLRRQWIAWPRGKSRDDPYEAIVPLLHISHYLPPVMAEAASCLDVKASFFPSLFTAGDSASLSMPRGGRHAGGADTTFNGIQGQPRNSPDYYYLGNRGGDDGGSPLWAAPPMVRIEVWIDNIRITGSKSDVTLWEAQVLRNADSCHAYLGGTANRALRNTLFWGYDLIKLTVRYP
not soluble

What about MTELARLKFYATQPHTCSYLPEEQATTLFLDPSQPMDVQVYADLSDMGFRRSGDHLYRPHCQNCSACVPARIPVNLFVPDRQQKRILKRNADIQVSSAKPVFTQEYFDLYQRYIEQRHADGDMFPPSREQFSTFLVRDLPFSRFYEFRVDQRLLAVAVTDLLPNGLSAVYTFYEPDEERRSLGRYAILWQIGEATRLQLQAVYLGYWIKNCKKMNYKTQYRPIELLTNQRWVTLYLEHHHHHH ?
not soluble

And for MGSDKIHHHHHHMATLSKKIDFAIIMSVKNANPNGDPLNGNRPRTDYEGLGEITDVCLKRKIRDRLVEQYVSLKNEEEKKGQAIFVQSDDRKIDGETSLRNRAESEKNGLGKKAFGANAKKDETAKSACEKWFDVRAFGQVFAFGKGNDADGVSIPVRGPVTIQSAFSRDLVSISSTQITKSVSGEGDGKKRSSDTMGMKHRVDRGIYVTYGTMNPQLAERTGFSDKDAAVIKAILPKIFENDASSARPEGSMEVVKVLWWQHNSKSGDYSSAKVHRSLKVNPDGSYIIEPLNGLVPEEIAGF ?
not soluble

###

# Protocol Text: soluble on expression in E. coli; label from the status in PepcDB or PDB records
Test Readout: soluble on expression in E. coli

{"Biosequence": "SNAMPKRSKEDTEITIQKIMDAVVDQLLRLGYDKMSYTTLSQQTGVSRTGISHHFPKKTDFTAALDGRIFKMFIEHLEFEKGLDAFSQSWIKALEDSEFLAILRLLFHHIVTSESAHEFAANGIDRLYKMVESQFGSGGDKELEWLIGRSLIQMSK", "soluble on expression in E. coli": "soluble"}
{"Biosequence": "GSHMAIDENKQKALAAALGQIEKQFGKGSIMRLGEDRSMDVETISTGSLSLDIALGAGGLPMGRIVEIYGPESSGKTTLTLQVIAAAQREGKTCAFIDAEHALDPIYARKLGVDIDNLLCSQPDTGEQALEICDALARSGAVDVIVVDSVAALTPKAEIEGEIGDSHMGLAARMMSQAMRKLAGNLKQSNTLLIFINQIRMKIGVMFGNPETTTGGNALKFYASVRLDIRRIGAVKEGENVVGSETRVKVVKNKIAAPFKQAEFQILYGEGINFYGELVDLGVKEKLIEKAGAWYSYKGEKIGQGKANATAWLKDNPETAKEIEKKVRELLLSNPNSTPDFSVDDSEGVAETNEDF", "soluble on expression in E. coli": "soluble"}
{"Biosequence": "MQQKDAVPDTAKKLKAPLTGLKTEQKVTERRPVAVVVNNHPKARPQSGLSKADIVIEALAEGQITRFLAIFQSQMPETVGPVRSAREYFVTLSNGFDSIFVHHGWSPGAKKQLESGAADYMNGLDFDGSLFWRADFSKPPHNSYTSYDYIKKAAEQKGYKLKQETNPLLFQTSDAKPANESYNVRVDYGTNNVTNLVEYNYDKKAEFYTRSSDGVITTDRETGKPVAMQNIFIVEASHHIIDQDGRRDIDLESGGKGLLFQHGNVIETDWKQVNGRIVPVKDGKWLPFVPGKTWINIVPDLDAASISKGEGVLEHHHHHH", "soluble on expression in E. coli": "soluble"}
{"Biosequence": "MSSSHKSWNSIYEFTVKDINGVDVSLEKYRGHVCLIVNVACKCGATDKNYRQLQEMHTRLVGKGLRILAFPCNQFGGQEPWAEAEIKKFVTEKYGVQFDMFSKIKVNGSDADDLYKFLKSRQHGTLTNNIKWNFSKFLVDRQGQPVKRYSPTTAPYDIEGDIMELLEKK", "soluble on expression in E. coli": "soluble"}

Next sequence, please.
Name the recorded soluble on expression in E. coli for SLTMNPLLTAEWGNVSEEKVEVVVDAGLGKALLVPASVESLSMQFNGVEVASLEEFDYSPTKSNARIVIGIDPNELVRALERYFESNQHGELSVEAKLGLFGLLHSTLTFSREFQQDILGQMDFKAESKPIFGGLLYTPSVEGTKVVWLGAENGVWNLKTYATLKNPNSFPIPVSNLEFEVSVNGIKVGVGNISQGVTIPAGGVATVPIDTEIYSEYLPTVLVAHIKNGEESSVEVNFYITVSSGGKSARINLTSERIVIQTDIMASINDALSGVSPRE .
soluble
